System: normal primary NK cells, pool 1 (3 donors) (IL-2 2.5 ng/mL)
Measurement Description: percent inhibition of viability; higher = more inhibition
Experimental Parameters: 72 h; 1000 nM
Property Measured: percent inhibition of viability (%)
Quick reminder: number only, in %, skip the unit.

Test system normal primary NK cells, pool 1 (3 donors) (IL-2 2.5 ng/mL); read-out percent inhibition of viability; what value for O=C(O)CC1CC(c2ccccc2)=NO1 (stereo not drawn) [VGX-1027] (max concentration tested 10000 nM) ?
17.1

Test system normal primary NK cells, pool 1 (3 donors) (IL-2 2.5 ng/mL); read-out percent inhibition of viability; what value for COc1cc(Nc2ncc(F)c(Nc3ccc4c(n3)NC(=O)C(C)(C)O4)n2)cc(OC)c1OC [Tamatinib] (max concentration tested 10000 nM) ?
9.38

Test system normal primary NK cells, pool 1 (3 donors) (IL-2 2.5 ng/mL); read-out percent inhibition of viability; what value for CC1(C)CCC(CN2CCN(c3ccc(C(=O)NS(=O)(=O)c4ccc(NCC5CCOCC5)c([N+](=O)[O-])c4)c(Oc4cnc5[nH]ccc5c4)c3)CC2)=C(c2ccc(Cl)cc2)C1 [Venetoclax] (max concentration tested 10000 nM) ?
36.7

Test system normal primary NK cells, pool 1 (3 donors) (IL-2 2.5 ng/mL); read-out percent inhibition of viability; what value for COc1cc(Nc2ncc3c(n2)-c2ccc(Cl)cc2C(c2c(F)cccc2OC)=NC3)ccc1C(=O)O [Alisertib] (max concentration tested 10000 nM) ?
0.99

Test system normal primary NK cells, pool 1 (3 donors) (IL-2 2.5 ng/mL); read-out percent inhibition of viability; what value for CN(c1ncccc1CNc1nc(Nc2ccc3c(c2)CC(=O)N3)ncc1C(F)(F)F)S(C)(=O)=O (max concentration tested 10000 nM) ?;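 also: normalised to DMSO-only wells as negative and benzethonium chloride as positive control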
10

Test system normal primary NK cells, pool 1 (3 donors) (IL-2 2.5 ng/mL); read-out percent inhibition of viability; what value for COc1cc2c(NC3CCN(C(C)C)CC3)nc(C3CCCCC3)nc2cc1OCCCN1CCCC1 [UNC0638] (max concentration tested 10000 nM) ?;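 also: normalised to DMSO-only wells as negative and benzethonium chloride as positive control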
-5.62

Test system normal primary NK cells, pool 1 (3 donors) (IL-2 2.5 ng/mL); read-out percent inhibition of viability; what value for Cc1[nH]c(/C=C2\C(=O)Nc3ccccc32)c(C)c1CCC(=O)O [Orantinib] (max concentration tested 10000 nM) ?;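 also: normalised to DMSO-only wells as negative and benzethonium chloride as positive control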
4.16

Test system normal primary NK cells, pool 1 (3 donors) (IL-2 2.5 ng/mL); read-out percent inhibition of viability; what value for OC[C@H]1O[C@@H](n2cnc3c2N=CNC[C@H]3O)C[C@@H]1O [Pentostatin] (max concentration tested 10000 nM) ?;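 also: normalised to DMSO-only wells as negative and benzethonium chloride as positive control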
-5.87
